Molecular target: γ-Secretase (Homo sapiens)
Construct: transfected H4 (human neuroglioma) cells stably expressing constructs containing wild-type and mutant forms of β-APP; endogenous in cells; host or cells: H4 human neuroglioma cells, stably transfected with beta-APP (the substrate, not the enzyme)
Assay: Inhibition of γ-secretase: ELISA of β-AP made by transfected H4 cells in culture
Type: cell-based
Conditions: H4 (human neuroglioma) cells expressing β-APP (Swedish variant typically), approximately 16 hours incubation, β-AP in conditioned medium by ELISA
Where a name gives a salt, the structure may show the parent alone.
MEASURE: Activity Rating (Inhibition of γ-Secretase)

[
  {
    "COMPOUND": "CCCCCN[C@@H](CC1CCCCC1)[C@@H](O)C[C@H](C(=O)NCCCC)C(C)C (relative stereo) [Example 45, hydrochloride]",
    "SUBJECT_OF_TEST": "γ-Secretase (Homo sapiens)",
    "RESULT": "+++ (+++ < = 10)"
  },
  {
    "COMPOUND": "CC(C)CCCN[C@@H](CC1CCCCC1)[C@@H](O)C[C@H](C(=O)NCC(C)(C)C)C(C)C (relative stereo) [Example 31, hydrochloride]",
    "SUBJECT_OF_TEST": "γ-Secretase (Homo sapiens)",
    "RESULT": "+++ (+++ < = 10)"
  },
  {
    "COMPOUND": "CC(C)CCCN[C@@H](CC1CCCCC1)[C@@H](O)C[C@H](C(=O)N[C@H](C)c1ccccc1)C(C)C (relative stereo) [Example 28, hydrochloride]",
    "SUBJECT_OF_TEST": "γ-Secretase (Homo sapiens)",
    "RESULT": "+++ (+++ < = 10)"
  }
]
